The measurements presented in this section are drawn from patent US12686665B2.

Target: recombinant human Lysyl Oxidase-Like 2 (LOXL2) (Homo sapiens)
Construct: purchased R&D systems
Assay: Amplex Red HRP-coupled amine oxidase assay, recombinant human LOXL2
Type: biochemical
Conditions: 60 min incubation with enzyme at 37° C., putrescine substrate, read-out: Inhibitory activity (IC50, nM) human LOXL2
Structures can show the parent of a compound that is named as a salt.
property label: IC50 (nM)
Provide only the numeric value, understood in nM.

**Query** IC50 for NC/C=C(\F)Cn1cnc2c(-c3cncc(Cl)c3)cc(C(F)(F)F)cc21 [Example 174, hydrochloride] ?
**Result** 304

**Query** IC50 for N#Cc1cc(-c2cncc(Cl)c2)c2nnn(C/C(F)=C/CN)c2c1 [Example 209, hydrochloride] ?
**Result** 86.8

**Query** IC50 for CS(=O)(=O)c1cccc(-c2cccc3c2nnn3C/C(F)=C/CN)c1 [Example 106, hydrochloride] ?
**Result** 94

**Query** IC50 for COC(=O)c1cc(-c2cccc(S(=O)(=O)N(C)C)c2)c2nnn(C/C(F)=C/CN)c2c1 [Example 124, hydrochloride] ?
**Result** 14.2

**Query** IC50 for CCS(=O)(=O)c1cccc(-c2cc(C(=O)OC)cc3c2nnn3C/C(F)=C/CN)c1 [Example 127, hydrochloride] ?
**Result** 19

**Query** IC50 for CCN(CC)S(=O)(=O)c1ccc(OC)c(-c2cc(C(=O)OC)cc3c2nnn3C/C(F)=C/CN)c1 [Example 119, hydrochloride] ?
**Result** 47.3

**Query** IC50 for COC(=O)c1cc(-c2cccc(S(=O)(=O)NCc3ccc(OC)cc3)c2)c2ncn(C/C(F)=C/CN)c2c1 [Example 32, hydrochloride] ?
**Result** 60.1

**Query** IC50 for N#Cc1cc(-c2cncnc2)c2ncn(C/C(F)=C/CN)c2c1 [Example 190, hydrochloride] ?
**Result** 117

**Query** IC50 for CNS(=O)(=O)c1cccc(-c2cc(C(=O)OC)cc3c2ncn3C/C(F)=C/CN)c1 [Example 30, hydrochloride] ?
**Result** 29.7

**Query** IC50 for COc1ccc(-c2cccc3c2nnn3C/C(F)=C/CN)cc1S(=O)(=O)NC(C)C [Example 109, hydrochloride] ?
**Result** 72

**Query** IC50 for NC/C=C(\F)Cn1nnc2c(-c3cncnc3)cc(C(F)(F)F)cc21 [Example 202, hydrochloride] ?
**Result** 190

**Query** IC50 for CCN(CC)S(=O)(=O)c1cccc(-c2cc(C(=O)OC)cc3c2ncn3C/C(F)=C/CN)c1 [Example 37, hydrochloride] ?
**Result** 70.3

**Query** IC50 for NC/C=C(\F)Cn1nnc2c(-c3cncc(F)c3)cc(C(F)(F)F)cc21 [Example 200, hydrochloride] ?
**Result** 330

**Query** IC50 for COC(=O)c1cc(-c2ccc(OC)c(S(=O)(=O)N(C)C)c2)c2ncn(C/C(F)=C/CN)c2c1 [Example 21, hydrochloride] ?
**Result** 22.7

====

Target: recombinant human Lysyl Oxidase-Like 2 (LOXL2) (Homo sapiens, UniProt Q9Y4K0)
Construct: purchased R&D systems
Test: Amplex Red HRP-coupled amine oxidase assay, recombinant human LOXL2
Type: biochemical
Details: 60 min incubation with enzyme at 37° C., putrescine substrate, read-out: Inhibitory activity (IC50, nM) human LOXL2
Structures can show the parent of a compound that is named as a salt.
Lab note: anything with IC50 below 300 nM is marked Condition met; values at 300 nM or higher are marked Condition not met.

**Query** Is the reported IC50 for N#Cc1cc(-c2cccnc2)c2ncn(C/C(F)=C/CN)c2c1 [Example 187, hydrochloride] strictly below 300 nM?
**Result** Condition not met

**Query** Is the reported IC50 for COC(=O)c1cc(-c2cccc(S(C)(=O)=O)c2)c2nnn(C/C(F)=C/CN)c2c1 [Example 118, hydrochloride] strictly below 300 nM?
**Result** Condition met

**Query** Is the reported IC50 for N#Cc1cc(-c2cccc(S(=O)(=O)N3CCCC3)c2)c2ncn(C/C(F)=C/CN)c2c1 [Example 181, hydrochloride] strictly below 300 nM?
**Result** Condition met

**Query** Is the reported IC50 for CC(=O)c1ccc(F)c(-c2cc(C(F)(F)F)cc3c2ncn3C/C(F)=C/CN)c1 [Example 169, hydrochloride] strictly below 300 nM?
**Result** Condition met

**Query** Is the reported IC50 for COC(=O)c1cc(-c2cccc(S(C)(=O)=O)c2)c2nc(C)n(C/C(F)=C/CN)c2c1 [Example 67, hydrochloride] strictly below 300 nM?
**Result** Condition met

**Query** Is the reported IC50 for NC/C=C(\F)Cn1nnc2c(-c3cccc(S(=O)(=O)N4CCC(F)(F)C4)c3)cccc21 [Example 103, hydrochloride] strictly below 300 nM?
**Result** Condition met

====

Target: recombinant human Lysyl Oxidase-Like 2 (LOXL2) (Homo sapiens, UniProt Q9Y4K0)
Construct: purchased R&D systems
Sequence (Q9Y4K0 26-774): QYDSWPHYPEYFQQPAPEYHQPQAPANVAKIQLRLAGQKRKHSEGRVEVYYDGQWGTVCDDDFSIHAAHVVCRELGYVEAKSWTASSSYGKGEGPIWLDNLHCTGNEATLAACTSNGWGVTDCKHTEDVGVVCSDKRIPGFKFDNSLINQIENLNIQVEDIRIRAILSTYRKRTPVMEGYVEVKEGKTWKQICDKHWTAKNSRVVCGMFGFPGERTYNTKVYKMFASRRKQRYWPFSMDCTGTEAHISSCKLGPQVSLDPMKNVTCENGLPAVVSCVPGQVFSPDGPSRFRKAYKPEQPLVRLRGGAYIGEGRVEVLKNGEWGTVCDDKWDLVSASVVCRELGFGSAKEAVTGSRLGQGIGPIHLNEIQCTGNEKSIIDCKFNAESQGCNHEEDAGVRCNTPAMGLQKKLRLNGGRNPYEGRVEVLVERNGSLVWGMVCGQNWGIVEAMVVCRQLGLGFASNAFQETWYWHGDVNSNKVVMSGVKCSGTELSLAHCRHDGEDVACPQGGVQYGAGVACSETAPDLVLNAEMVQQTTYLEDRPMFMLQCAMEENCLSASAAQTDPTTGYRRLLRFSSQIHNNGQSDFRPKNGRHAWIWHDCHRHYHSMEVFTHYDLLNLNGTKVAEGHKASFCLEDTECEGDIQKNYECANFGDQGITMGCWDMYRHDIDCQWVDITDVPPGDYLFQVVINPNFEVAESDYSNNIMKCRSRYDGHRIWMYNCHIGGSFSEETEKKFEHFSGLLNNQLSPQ
Assay: Amplex Red HRP-coupled amine oxidase assay, recombinant human LOXL2
Type: biochemical
Conditions: 60 min incubation with enzyme at 37° C., putrescine substrate, read-out: Inhibitory activity (IC50, nM) human LOXL2
Counter-ions that a name gives are not always drawn.
property label: IC50 (nM)
Provide only the numeric value, understood in nM.

**Query** IC50 for NC/C=C(\F)Cn1cnc2c(-c3cncc(F)c3)cc(C(F)(F)F)cc21 [Example 173, hydrochloride] ?
**Result** 269

**Query** IC50 for CN(C)S(=O)(=O)c1cccc(-c2cc(C#N)cc3c2ncn3C/C(F)=C/CN)c1 [Example 182, hydrochloride] ?
**Result** 28.7

**Query** IC50 for CCS(=O)(=O)c1cccc(-c2cc(C(=O)OC)cc3c2ncn3C/C(F)=C/CN)c1 [Example 34, hydrochloride] ?
**Result** 37.6

**Query** IC50 for COC(=O)c1cc(-c2cccc(S(=O)(=O)N3CCCCC3)c2)c2ncn(C/C(F)=C/CN)c2c1 [Example 33, hydrochloride] ?
**Result** 55.6

**Query** IC50 for COC(=O)c1cc(-c2cccc(S(=O)(=O)N3CCC(F)(F)C3)c2)c2ncn(C/C(F)=C/CN)c2c1 [Example 22, hydrochloride] ?
**Result** 19.9

**Query** IC50 for COC(=O)c1cc(-c2cccc(S(=O)(=O)NC3CC3)c2)c2ncn(C/C(F)=C/CN)c2c1 [Example 29, hydrochloride] ?
**Result** 34.9

**Query** IC50 for COC(=O)c1cc(-c2cccc(S(C)(=O)=O)c2)c2ncn(C/C(F)=C/CN)c2c1 [Example 25, hydrochloride] ?
**Result** 22.7

**Query** IC50 for NC/C=C(\F)Cn1cnc2c(-c3cncnc3)cc(C(F)(F)F)cc21 [Example 175, hydrochloride] ?
**Result** 259

**Query** IC50 for COC(=O)c1cc(-c2cc(S(=O)(=O)NC3CC3)ccc2OC)c2nnn(C/C(F)=C/CN)c2c1 [Example 120, hydrochloride] ?
**Result** 17.1

**Query** IC50 for Cc1cc(-c2cc(C(F)(F)F)cc3c2nnn3C/C(F)=C/CN)n(C)n1 [Example 204, hydrochloride] ?
**Result** 497

**Query** IC50 for CCN(CC)S(=O)(=O)c1ccc(OC)c(-c2cc(C(=O)N(C)OC)cc3c2nnn3C/C(F)=C/CN)c1 [Example 138, hydrochloride] ?
**Result** 54.3

**Query** IC50 for N#Cc1cc(-c2cccc(CO)c2Cl)c2ncn(C/C(F)=C/CN)c2c1 [Example 186, hydrochloride] ?
**Result** 109

**Query** IC50 for COc1ccc(S(=O)(=O)N2CCN(C)CC2)cc1-c1cccc2c1nnn2C/C(F)=C/CN [Example 113, hydrochloride] ?
**Result** 65

**Query** IC50 for COC(=O)c1cc(-c2cccc(S(=O)(=O)N3CCCC3)c2)c2nc(C)n(C/C(F)=C/CN)c2c1 [Example 70, hydrochloride] ?
**Result** 60
